# System: Canis familiaris
# EXPERIMENTAL PROTOCOL: Percent change in mean arterial blood pressure in anesthetized dog
# Format: functional, Canis lupus familiaris
Binary call on Change with cut-off -20%: strictly below means 1 (yes), and equality or higher means 0 (no).

Please review the entries below; each comes with its answer.
MOLECULE	CLASSIFICATION
Cc1ccc(-c2nc3cc[nH]cc-3n2)cc1C	1 (yes)
CCSCCOc1cc(OC)ccc1-c1nc2cc[nH]cc-2n1	1 (yes)
COc1cc(C)ccc1-c1nc2cc[nH]cc-2n1	0 (no)
COc1cc(C(F)(F)F)ccc1-c1nc2cc[nH]cc-2n1	0 (no)
Nc1cc(-c2ccncc2)c[nH]c1=O [INAMRINONE]	0 (no)

Incoming: Quick check: does CCOc1cc([S+](C)[O-])ccc1-c1nc2cc[nH]cc-2n1 (stereo unspecified) have Change under -20%?
Outgoing: 0 (no)

Incoming: Quick check: does `COc1ccc(-c2nc3cc[nH]cc-3n2)c(OCCSC)c1` have Change under -20%?
Outgoing: 1 (yes)

Incoming: API: query returns whether the molecule falls strictly under -20% in Change. Query: `CCCOc1cc(SC)ccc1-c1nc2cc[nH]cc-2n1`
Outgoing: 1 (yes)

Incoming: # TODO verify Change < -20% strictly for this molecule: `COc1cc(OS(C)(=O)=O)ccc1-c1nc2cc[nH]cc-2n1`
Outgoing: 1 (yes)

Incoming: Is Change strictly under -20% for the entry `COc1cc([N+](=O)[O-])ccc1-c1nc2cc[nH]cc-2n1` ?
Outgoing: 1 (yes)

Incoming: Lab note: confirm whether the reported Change for this molecule is below -20%, equality not counting. molecule: `Clc1ccc(-c2nc3cc[nH]cc-3n2)c(Cl)c1`
Outgoing: 1 (yes)

Incoming: I'd appreciate it if you could check whether `Cc1cccc(-c2nc3ccc[nH]c-3n2)c1` has Change smaller than -20%.
Outgoing: 1 (yes)

Incoming: Below -20% on Change? Entry `Cc1ccc(-c2nc3cc[nH]cc-3n2)c(C)c1`
Outgoing: 1 (yes)

Incoming: A record lists `COc1cc(Cl)ccc1-c1nc2cc[nH]cc-2n1` . Is its Change below -20%?
Outgoing: 1 (yes)

Incoming: Find out if reported Change for `CSc1ccc(-c2nc3cc[nH]cc-3n2)cc1` is less than -20%
Outgoing: 0 (no)

Incoming: A record lists COc1cc([S+](C)[O-])ccc1-c1nc2cccnc2[nH]1 (stereo unspecified) [SULMAZOLE] . Is its Change below -20%?
Outgoing: 0 (no)

Incoming: Does this molecule meet the criterion Change < -20%? CCCOc1cc([S+](C)[O-])ccc1-c1nc2cc[nH]cc-2n1 (stereo unspecified)
Outgoing: 1 (yes)

Incoming: State whether -20% exceeds Change recorded for `c1ccc(-c2nc3cc[nH]cc-3n2)cc1` .
Outgoing: 0 (no)

Incoming: Please check: Change for `COc1cc(S(C)(=O)=O)ccc1-c1nc2ccncc2[nH]1` , strictly under -20% or not?
Outgoing: 0 (no)

====

# Organism: Felis catus
# EXPERIMENTAL PROTOCOL: Response ratio = (percent increase to drug)/(percent increase to 10 E-4 M isoproterenol)
# Assay type: functional
QUANTITY KIND: Response ratio
API note: the answer field is a bare number with no unit suffix.

Before answering, review these 3 worked examples.
MOLECULE	QUANTITY KIND	NUMBER
CC[S+]([O-])c1ccc(-c2nc3cc[nH]cc-3n2)c(OC)c1 (stereo not drawn)	Response ratio	1
COc1cc(S(C)(=O)=O)ccc1-c1nc2ccncc2[nH]1	Response ratio	1.68
Fc1ccccc1-c1nc2cc[nH]cc-2n1	Response ratio	0.63

Incoming: Provide measured Response ratio value, entry: COc1cc(-c2nc3cc[nH]cc-3n2)ccc1[S+](C)[O-] (stereo not drawn)
Outgoing: 0.75

Incoming: Please supply the value of reported Response ratio for the item `N#Cc1ccc(-c2nc3ccncc3[nH]2)cc1`
Outgoing: 0.89

Incoming: Please look at this molecule and report its Response ratio: COc1ccc(-c2nc3cc[nH]cc-3n2)c(OCC[S+]([O-])c2ccccc2)c1 (stereo not drawn)
Outgoing: -0.05

====

# Organism: Felis catus
# EXPERIMENTAL PROTOCOL: Response ratio = (percent increase to drug)/(percent increase to 10 E-4 M isoproterenol)
# Format: functional
// returns Criterion not met unless Response ratio is strictly below 0.9, in which case Criterion met

MOL	CLASSIFICATION
Fc1ccc(-c2nc3cc[nH]cc-3n2)cc1	Criterion met
Cc1ccc(-c2nc3cc[nH]cc-3n2)cc1	Criterion not met

Incoming: is_below(Response ratio, 0.9) for `CCCCOc1ccc(-c2nc3cc[nH]cc-3n2)cc1` ?
Outgoing: Criterion not met

Incoming: Dear colleague, could you confirm whether Response ratio of `COCCOc1cc(OC)ccc1-c1nc2cc[nH]cc-2n1` falls below 0.9? Thanks.
Outgoing: Criterion met

Incoming: Field: below-cutoff. Rule: recorded Response ratio strictly less than 0.9. Subject: `COc1ccc(-c2nc3cc[nH]cc-3n2)c(SC)c1`
Outgoing: Criterion not met

Incoming: API: query returns whether the compound falls strictly under 0.9 in Response ratio. Query: `COc1ccc(-c2nc3cc[nH]cc-3n2)c(OCCSc2ccccc2)c1`
Outgoing: Criterion met

Incoming: Is it true that Response ratio reported for `COc1ccc(OC)c(-c2nc3cc[nH]cc-3n2)c1` is less than 0.9?
Outgoing: Criterion not met
